Data origin, for the record: patent US20250214991A1

STUDY TARGET: IKZF1 (Homo sapiens (Human), UniProt Q13422+Q96SW2)
Sequence (Q13422 whole entry): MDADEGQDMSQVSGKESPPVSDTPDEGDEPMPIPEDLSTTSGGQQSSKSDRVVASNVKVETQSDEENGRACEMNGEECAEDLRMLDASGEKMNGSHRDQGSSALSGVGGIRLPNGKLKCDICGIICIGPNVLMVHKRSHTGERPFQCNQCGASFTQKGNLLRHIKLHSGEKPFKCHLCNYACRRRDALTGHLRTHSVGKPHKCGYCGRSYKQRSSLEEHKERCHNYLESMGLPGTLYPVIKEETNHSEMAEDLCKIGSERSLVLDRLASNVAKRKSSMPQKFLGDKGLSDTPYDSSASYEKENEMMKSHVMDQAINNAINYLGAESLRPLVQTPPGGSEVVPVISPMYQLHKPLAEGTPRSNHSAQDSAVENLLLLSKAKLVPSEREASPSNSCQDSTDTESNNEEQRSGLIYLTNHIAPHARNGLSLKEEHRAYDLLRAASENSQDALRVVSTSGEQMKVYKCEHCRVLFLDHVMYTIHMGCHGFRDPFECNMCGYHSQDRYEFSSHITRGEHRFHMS
Sequence (Q96SW2 whole entry): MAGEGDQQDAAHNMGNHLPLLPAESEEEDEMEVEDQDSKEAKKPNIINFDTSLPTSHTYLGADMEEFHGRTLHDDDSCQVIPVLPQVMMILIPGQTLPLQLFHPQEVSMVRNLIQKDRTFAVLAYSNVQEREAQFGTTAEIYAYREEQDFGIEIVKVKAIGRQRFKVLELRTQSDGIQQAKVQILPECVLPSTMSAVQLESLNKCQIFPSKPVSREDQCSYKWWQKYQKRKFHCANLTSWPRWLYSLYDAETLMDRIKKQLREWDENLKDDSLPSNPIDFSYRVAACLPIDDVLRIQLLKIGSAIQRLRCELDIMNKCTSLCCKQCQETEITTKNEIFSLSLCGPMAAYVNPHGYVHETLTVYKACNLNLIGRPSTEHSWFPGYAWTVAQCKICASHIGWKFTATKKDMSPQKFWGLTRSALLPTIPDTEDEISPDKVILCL
Sequence (Q16531 2-1140 partner): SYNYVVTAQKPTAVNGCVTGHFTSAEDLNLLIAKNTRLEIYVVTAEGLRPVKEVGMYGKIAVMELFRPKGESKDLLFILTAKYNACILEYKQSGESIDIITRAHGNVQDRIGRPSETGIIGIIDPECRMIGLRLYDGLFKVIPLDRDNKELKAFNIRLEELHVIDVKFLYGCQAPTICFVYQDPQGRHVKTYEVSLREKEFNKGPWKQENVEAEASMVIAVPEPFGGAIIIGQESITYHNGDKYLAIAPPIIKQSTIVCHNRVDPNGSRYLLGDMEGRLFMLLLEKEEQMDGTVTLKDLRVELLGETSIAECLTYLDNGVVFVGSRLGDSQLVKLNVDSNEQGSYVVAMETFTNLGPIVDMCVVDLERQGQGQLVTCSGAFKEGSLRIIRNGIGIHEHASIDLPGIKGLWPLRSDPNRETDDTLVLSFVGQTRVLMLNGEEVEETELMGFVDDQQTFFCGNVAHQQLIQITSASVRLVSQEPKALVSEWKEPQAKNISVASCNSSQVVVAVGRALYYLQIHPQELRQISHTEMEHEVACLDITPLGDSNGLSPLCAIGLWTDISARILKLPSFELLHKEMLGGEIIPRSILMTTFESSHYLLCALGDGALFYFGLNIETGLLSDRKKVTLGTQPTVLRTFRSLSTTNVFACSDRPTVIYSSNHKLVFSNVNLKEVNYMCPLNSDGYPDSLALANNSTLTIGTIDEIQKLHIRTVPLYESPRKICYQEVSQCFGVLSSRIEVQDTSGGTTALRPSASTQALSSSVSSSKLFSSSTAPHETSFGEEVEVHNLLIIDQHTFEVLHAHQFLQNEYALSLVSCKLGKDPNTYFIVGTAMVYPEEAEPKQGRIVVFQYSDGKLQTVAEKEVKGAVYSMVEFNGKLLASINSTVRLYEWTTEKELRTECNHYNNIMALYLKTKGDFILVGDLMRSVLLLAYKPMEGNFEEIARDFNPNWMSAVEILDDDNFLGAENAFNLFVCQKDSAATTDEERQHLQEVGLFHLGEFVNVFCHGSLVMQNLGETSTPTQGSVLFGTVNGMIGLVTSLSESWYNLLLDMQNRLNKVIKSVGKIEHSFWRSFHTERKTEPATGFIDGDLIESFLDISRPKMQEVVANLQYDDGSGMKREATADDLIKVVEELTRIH
MEASUREMENT PROTOCOL: In vitro IKZF1 HiBit Assay (HEK293T Flp-in-HiBiT-IKZF1 stable cell line)
Assay type: cell-based
PROTOCOL CONDITIONS: HEK293T Flp-in-HiBiT-IKZF1 stable cell line, 6 hrs incubation; read-out: IKZF1 HiBit DC50
Some molecules, each annotated with its measured DC50.

Ask | Record O=C1CCC(N2Cc3cc(-c4nc5[nH]ccc5c(CN5CCCC5)c4Cl)ccc3C2=O)C(=O)N1 (centres unmarked) [Example 221] : what is its DC50 with IKZF1 (Homo sapiens (Human), UniProt Q13422+Q96SW2)?
Reply | > 10000 nM

Ask | Lab note: need DC50 for COC1CN(Cc2cc(-c3ccc4c(c3)CN(C3CCC(=O)NC3=O)C4=O)nc3c2ccn3C)C1 (centres unmarked) [Example 85] on IKZF1 (Homo sapiens (Human), UniProt Q13422+Q96SW2), anyone have it?
Reply | 1 to 10 nM

Ask | GET /values?readout=DC50&system=IKZF1 (Homo sapiens (Human), UniProt Q13422+Q96SW2)&item= Cn1ccc2c(CN3CCC4(CC3)COC4)cc(-c3ccc4c(c3)CN(C3CCC(=O)NC3=O)C4=O)nc21 (centres unmarked) [Example 73]
Reply | > 10000 nM

----------
STUDY TARGET: IKZF1 (Homo sapiens (Human), UniProt Q13422+Q96SW2)
MEASUREMENT PROTOCOL: In vitro IKZF1 HiBit Assay (HEK293T Flp-in-HiBiT-IKZF1 stable cell line)
Assay type: cell-based
PROTOCOL CONDITIONS: HEK-293T; HEK293T Flp-in-HiBiT-IKZF1 stable cell line, 6 hrs incubation; read-out: IKZF1 HiBit Dmax (%)
QUANTITY: Dmax

These solved cases illustrate the format of a correct answer.
>>> observed_result("Cn1ccc2c(CN3CCCC3)c(Cl)c(-c3ccc4c(c3)CN(C3CCC(=O)NC3=O)C4=O)nc21 (stereo not shown)")
"< 20%"
>>> observed_result("Cn1nc(N)c2nc(-c3ccc4c(c3)CN(C3CCC(=O)NC3=O)C4=O)cc(CN3CCCC3)c21 (stereo not shown)")
"40 to 60%"
>>> observed_result("COC1CC(n2ccc3c(CN4CCCC4)cc(-c4ccc5c(c4)CN(C4CCC(=O)NC4=O)C5=O)nc32)C1 (stereo not shown)")
"20 to 40%"

Ask | API: value(readout= Dmax, system= IKZF1 (Homo sapiens (Human), UniProt Q13422+Q96SW2), query= Cn1ccc2c(CN3CCS(=O)(=O)CC3)cc(-c3ccc4c(c3)CN(C3CCC(=O)NC3=O)C4=O)nc21 (stereo not shown) )
Reply | < 20%

----------
Each entry below lists one item and its recorded DC50 value.
STUDY TARGET: IKZF2 (Homo sapiens (Human), UniProt Q96SW2+Q9UKS7)
Sequence (Q9UKS7 whole entry): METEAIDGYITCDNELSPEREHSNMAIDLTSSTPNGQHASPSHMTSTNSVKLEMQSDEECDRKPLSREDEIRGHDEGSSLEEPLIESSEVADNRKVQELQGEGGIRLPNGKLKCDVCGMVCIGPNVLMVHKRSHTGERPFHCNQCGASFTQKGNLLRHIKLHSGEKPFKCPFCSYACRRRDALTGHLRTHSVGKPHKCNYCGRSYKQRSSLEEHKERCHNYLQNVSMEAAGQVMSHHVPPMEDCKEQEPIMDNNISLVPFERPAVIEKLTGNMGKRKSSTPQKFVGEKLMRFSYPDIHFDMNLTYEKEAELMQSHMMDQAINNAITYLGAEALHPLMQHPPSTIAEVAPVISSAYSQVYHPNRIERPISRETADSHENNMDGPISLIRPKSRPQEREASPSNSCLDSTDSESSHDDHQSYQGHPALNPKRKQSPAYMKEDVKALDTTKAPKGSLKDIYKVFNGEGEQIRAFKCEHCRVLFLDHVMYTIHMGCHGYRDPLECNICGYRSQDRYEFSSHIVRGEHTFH
Sequence (Q96SW2 whole entry): as the sequence (Q96SW2 whole entry) above
Sequence (Q16531 2-1140 partner): as the sequence (Q16531 2-1140 partner) above
MEASUREMENT PROTOCOL: In vitro IKZF2 HiBit Assay (HEK293T Flp-in-HiBiT cells)
Assay type: cell-based
PROTOCOL CONDITIONS: HEK293T Flp-in-HiBiT cells, 6 hrs incubation; read-out: IKZF2 HiBit DC50

// known answers, use as guide
>>> observed_result("COC1CC(n2ccc3c(CN4CCCC4)cc(-c4ccc5c(c4)CN(C4CCC(=O)NC4=O)C5=O)nc32)C1 (centres unmarked)")
"0.001 to 0.01 µM"
>>> observed_result("COC1CCN(Cc2cc(-c3ccc4c(c3)CN(C3CCC(=O)NC3=O)C4=O)nc3c2ccn3C)C1 (centres unmarked)")
"< 0.001 µM"
>>> observed_result("CC(C)CC1CN(Cc2cc(-c3ccc4c(c3)CN(C3CCC(=O)NC3=O)C4=O)nc3[nH]ccc23)CC1O (centres unmarked)")
"0.001 to 0.01 µM"

Ask | Name the recorded DC50 for Cn1ccc2c(O[C@@H]3CCNC3)cc(-c3ccc4c(c3)CN([C@H]3CCC(=O)NC3=O)C4=O)nc21 .
Reply | 0.01 to 0.1 µM

Ask | Recorded DC50 for CC(c1cc(-c2ccc3c(c2)CN(C2CCC(=O)NC2=O)C3=O)nc2c1ccn2C)N1CCCC1 (centres unmarked) , please?
Reply | 0.1 to 1 µM

Ask | Suppose we examine the molecule O=C1CCC(N2Cc3cc(-c4cc(CN5CCC6(CC5)COC6)c5ccn(C6COC6)c5n4)ccc3C2=O)C(=O)N1 (centres unmarked) ; what DC50 value has been reported?
Reply | 0.001 to 0.01 µM

Ask | Returns the measured DC50 for the input molecule. Input: O=C1CCC(N2Cc3cc(-c4cc(CN5CC6COCC(C6)C5)c5ccn(C6COC6)c5n4)ccc3C2=O)C(=O)N1 (centres unmarked)
Reply | 0.001 to 0.01 µM

Ask | Entry under review: CC#CCn1ccc2c(CN3CCCC3)cc(-c3ccc4c(c3)CN(C3CCC(=O)NC3=O)C4=O)nc21 (centres unmarked) . Reported DC50?
Reply | 0.001 to 0.01 µM

Ask | Recorded DC50 of O=C1CCC(N2Cc3cc(-c4nc(CN5CCCC5)c5ccn(C6CS(=O)(=O)C6)c5n4)ccc3C2=O)C(=O)N1 (centres unmarked) , please.
Reply | 0.01 to 0.1 µM

Ask | Given O=C1CCC(N2Cc3c(ccc(-c4nc5c(ccn5C5COC5)c(CN5CCCC5)c4Cl)c3F)C2=O)C(=O)N1 (centres unmarked) , state its recorded DC50.
Reply | < 0.001 µM

Ask | Any idea what its DC50 is? The molecule is O=C1CCC(N2Cc3cc(-c4cc(CN5CC(F)C5)c5cc[nH]c5n4)ccc3C2=O)C(=O)N1 (centres unmarked)
Reply | 0.001 to 0.01 µM

----------
# key: entry, value: Dmax
STUDY TARGET: IKZF2 (Homo sapiens (Human), UniProt Q96SW2+Q9UKS7)
MEASUREMENT PROTOCOL: In vitro IKZF2 HiBit Assay (HEK293T Flp-in-HiBiT cells)
Type: cell-based
PROTOCOL CONDITIONS: HEK-293T; HEK293T Flp-in-HiBiT cells, 6 hrs incubation; read-out: IKZF2 HiBit Dmax (%)
Counter-ions that a name gives are not always drawn.

Solved cases (4 shown):
>>> observed_result("Cn1ccc2c(CN3CCCCC3)cc(-c3ccc4c(c3)CN(C3CCC(=O)NC3=O)C4=O)nc21 (stereo not drawn) [Example 57]")
"> 80%"
>>> observed_result("Nc1n[nH]c2c(CN3CCC(F)CC3)cc(-c3ccc4c(c3)CN(C3CCC(=O)NC3=O)C4=O)nc12 (stereo not drawn) [Example 212]")
"60 to 80%"
>>> observed_result("COC1CCN(Cc2cc(-c3ccc4c(c3F)CN(C3CCC(=O)NC3=O)C4=O)nc3c2ccn3C2CS(=O)(=O)C2)CC1 (stereo not drawn) [Example 266, formate]")
"> 80%"
>>> observed_result("O=C1CCC(N2Cc3cc(-c4cc(CN5CCCC5)c5ncn(C6COC6)c5n4)ccc3C2=O)C(=O)N1 (stereo not drawn) [Example 211]")
"60 to 80%"

Ask | What does the data say about its Dmax? Entry: O=C1CCC(N2Cc3cc(-c4cc(CN5CCCC5)c5ccccc5n4)ccc3C2=O)C(=O)N1 (stereo not drawn) [Example 78]
Reply | > 80%

Ask | Tell me the measured Dmax of O=C1CCC(N2Cc3cc(-c4cc(CN5CCCCC5)cc5cncn45)ccc3C2=O)C(=O)N1 (stereo not drawn) [Example 3] , please.
Reply | 60 to 80%

----------
STUDY TARGET: IKZF1 (Homo sapiens (Human), UniProt Q13422+Q96SW2)
MEASUREMENT PROTOCOL: In vitro IKZF1 HiBit Assay (HEK293T Flp-in-HiBiT-IKZF1 stable cell line)
Assay type: cell-based
PROTOCOL CONDITIONS: HEK-293T; HEK293T Flp-in-HiBiT-IKZF1 stable cell line, 6 hrs incubation; read-out: IKZF1 HiBit Dmax (%)
QUANTITY: Dmax

Reference set, count: 3
>>> observed_result("O=C1CCC(N2Cc3cc(-c4cc(CN5CC(F)C5)c5ccn(C6COC6)c5n4)ccc3C2=O)C(=O)N1 (stereo not shown)")
"< 20%"
>>> observed_result("Cn1ccc2c(CN3CCC(O)CC3)cc(-c3ccc4c(c3)CN(C3CCC(=O)NC3=O)C4=O)nc21 (stereo not shown)")
"< 20%"
>>> observed_result("O=C1CCC(N2Cc3cc(-c4cc(CN5CCC(CO)C5)c5ccn(C6COC6)c5n4)ccc3C2=O)C(=O)N1 (stereo not shown)")
"20 to 40%"

Attention now turns to another entry.
Ask | Query: Dmax; subject: O=C1CCC(N2Cc3cc(-c4cc(CN5CCCC5)c5cn(C6CCC6)nc5n4)ccc3C2=O)C(=O)N1 (stereo not shown)
Reply | 20 to 40%
